# TESTED_ON: Luciferin 4-monooxygenase (Photinus pyralis) (UniProt P08659)
# PROTOCOL_DESCRIPTION: Primary firefly luciferase (FLuc) qHTS assay for identification of artifact compounds. (AID 1845220); further: nearly all actives have a fitted effect of over 60% in size;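 on activity change, negative = inhibition: plate controls were DMSO vehicle for no effect and no enzyme for full effect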
# REPORTED_CONDITIONS: purified firefly luciferase, luminescence, 5 min; series mostly up to 54.1 µM
Active and inactive are the calls of the source. The call rests on the fitted dose curve; in most records, active means well fitted inhibition curve with a large enough effect; inconclusive means small, poorly fitted or top-dose-only effect; inactive means flat fitted curve, though single readings scatter.
QUANTITY_NAME: activity change, negative = inhibition

// known answers, use as guide
| COMPOUND | activity change, negative = inhibition |
| --- | --- |
| COc1cc2c(cc1OC)N1C(=O)C[C@]34C=CCN5CC[C@@H]2[C@@H](CC3)[C@]514 | inactive |
| C[C@@H]1O[C@@H](O[C@H]2[C@H](OC(=O)[C@]34CCC(C)(C)C[C@H]3C3=CCC5[C@@]6(C)C[C@H](O)[C@H](O[C@@H]7O[C@H](CO)[C@@H](O)[C@H](O)[C@H]7O)[C@@](C)(CO)C6[C@H](O)C[C@@]5(C)[C@]3(C)CC4)OC[C@H](O)[C@@H]2O)[C@H](O)[C@H](O)[C@H]1O[C@@H]1OC[C@@H](O)[C@H](O[C@@H]2OC[C@](O)(CO)[C@H]2O)[C@H]1O (stereo not given in full) | 1.22% [at 11.6 µM] (inactive) |
| CN(C)c1nc(NC2CCC(NC(=O)c3ccc(F)c(F)c3)CC2)nc2ccccc12 (stereo not given) | inactive |
| CC1CCC23COC(=O)C2=CC(O)CC3C1(C)CCC1=CC(O)OC1=O (stereo not given) | inactive |

Please find the next compound below.
Problem: Lab note: need activity change, negative = inhibition with Luciferin 4-monooxygenase (Photinus pyralis) (UniProt P08659) for entry COc1cccc(C(=O)N2CCN(C(=O)COc3cccc(C)c3)CC2)c1OC , please look it up.
Solution: inactive
